I'd appreciate it if you could supply % Encapsulation (Ribogreen) values for the items below.
- assay_notes: Encapsulation of mRNA nanoparticles with lipid amines using Ribogreen assay
- Assay type: physicochemical
- assay_setup: Luciferase mRNA nanoparticle modified with lipid amine
- Method: Lipids are dissolved in ethanol at a concentration of 24 mg/mL and molar ratios of 49.0:11.2:39.3:0.5 (IL1:DSPC:cholesterol:PEG-DMG-2K) and mixed with the acidification buffer (45 mM acetate buffer at pH 4). The lipid solution and acidification buffer are mixed using a multi-inlet vortex mixer at a 3:7 volumetric ratio of lipid:buffer for mixer 1 and mixer 2 and a 1:3 volumetric ratio of lipid:buffer (25% ethanol) for mixer 3. […]
Where a name gives a salt, the structure may show the parent alone.
Hi! Could you send only the number? It should be in %, unit omitted.

Q: Write down % Encapsulation (Ribogreen) measured for item CC(C)CCC[C@@H](C)[C@H]1CC[C@H]2[C@@H]3CC=C4C[C@@H](OC(=O)N(CCCCNC(C)CC(C)N)C(C)CC(C)N)CC[C@]4(C)[C@H]3CC[C@]12C.Cl.Cl.Cl (some centres unmarked)
Result: 99.7

Q: Entry CC(C)CCC[C@@H](C)[C@H]1CC[C@H]2[C@@H]3CC=C4C[C@@H](OC(=O)N(CCCCCCCC(C)N)CCC(C)N)CC[C@]4(C)[C@H]3CC[C@]12C (some centres unmarked) [SA151, dihydrochloride] needs its % Encapsulation (Ribogreen) filled in; supply it.
Result: 95.8

Q: Please give the documented % Encapsulation (Ribogreen) of CC(C)CCC[C@@H](C)[C@H]1CC[C@H]2[C@@H]3CC=C4C[C@@H](OC(=O)N(CCC(C)(C)N)CCC(C)(C)N)CC[C@]4(C)[C@H]3CC[C@]12C [SA158, dihydrochloride]
Result: 99.7

Q: Provide measured % Encapsulation (Ribogreen) value, entry: CC(C)CCC[C@@H](C)[C@H]1CC[C@H]2[C@@H]3CC=C4C[C@@H](OC(=O)C(C)C(=O)N(CCCN)CCCCNCCCN)CC[C@]4(C)[C@H]3CC[C@]12C.Cl.Cl.Cl (some centres unmarked)
Result: 99.0

Q: Give a short answer stating reported % Encapsulation (Ribogreen) for CC(C)CCC[C@@H](C)[C@H]1CC[C@H]2[C@@H]3CC=C4C[C@@H](SSCCC(=O)N(CCC(C)N)CCC(C)N)CC[C@]4(C)[C@H]3CC[C@]12C (some centres unmarked) [SA173, dihydrochloride] .
Result: 99.5

###

- System: HeLa cells
- assay_notes: Luciferase Protein Expression Assay in HeLa Cells
- Format: cell-based, Human
- assay_setup: LNPs encapsulating Luciferase mRNA, 25 ng per well, N=4 wells; 5 h serum-free then 24 h; ONE-Glo
Structures can show the parent of a compound that is named as a salt.
measured_endpoint: Average Relative Light Units ± Standard Deviation (Relative Light Units)
Your answer is read as Relative Light Units, so omit the unit and give the number.

Q: Provide one value: measured Average Relative Light Units ± Standard Deviation of CC(C)CCC[C@@H](C)[C@H]1CC[C@H]2[C@@H]3CC=C4C[C@@H](OC(=O)N(CCCN)CCCCCCCCN)CC[C@]4(C)[C@H]3CC[C@]12C [SA60, dihydrochloride]
Result: 30508.5

Q: Provide measured Average Relative Light Units ± Standard Deviation value, entry: CC[C@H](CC[C@@H](C)[C@H]1CC[C@H]2[C@@H]3CC=C4C[C@@H](OC(=O)N(CCCN)CCCCN)CC[C@]4(C)[C@H]3CC[C@]12C)C(C)C [SA120, dihydrochloride]
Result: 34695.5

Q: Identify measured Average Relative Light Units ± Standard Deviation associated with CC[C@H](CC[C@@H](C)[C@H]1CC[C@H]2[C@@H]3CC=C4C[C@@H](OC(=O)CCCC(=O)N(CCCCCCCC(C)N)CCC(C)N)CC[C@]4(C)[C@H]3CC[C@]12C)C(C)C (stereo partly shown) [SA154, dihydrochloride]
Result: 28128.6

Q: Tell me measured Average Relative Light Units ± Standard Deviation for CC(C)CCC[C@@H](C)[C@H]1CC[C@H]2[C@@H]3CC=C4C[C@@H](OC(=O)N(CCCCCCCC(C)N)CCC(C)N)CC[C@]4(C)[C@H]3CC[C@]12C (stereo partly shown) [SA151, dihydrochloride] please.
Result: 36345.5

###

Please go through the items and note down their Average Relative Light Units ± Standard Deviation.
- System: HeLa cells
- assay_notes: Luciferase Protein Expression Assay in HeLa Cells
- Assay type: cell-based, Human
- assay_setup: LNPs encapsulating Luciferase mRNA, 25 ng per well, N=4 wells; 5 h serum-free then 24 h; ONE-Glo
Structures can show the parent of a compound that is named as a salt.
Quick reminder: number only, in Relative Light Units, skip the unit.

Q: Supply measured Average Relative Light Units ± Standard Deviation of CC[C@H](CC[C@@H](C)[C@H]1CC[C@H]2[C@@H]3CC=C4C[C@@H](OC(=O)CCC(=O)N(CCC(C)N)CCC(C)N)CC[C@]4(C)[C@H]3CC[C@]12C)C(C)C (stereo partly shown) [SA168, dihydrochloride] in your reply.
Result: 35639.5

Q: Return the recorded Average Relative Light Units ± Standard Deviation value; entry: CC(C)CCC[C@@H](C)[C@H]1CC[C@H]2[C@@H]3CC=C4C[C@@H](OC(=O)CCC(=O)N(CCCCCCCC(C)(C)N)CCC(C)(C)N)CC[C@]4(C)[C@H]3CC[C@]12C [SA164, dihydrochloride]
Result: 17129.2

Q: Indicate its recorded Average Relative Light Units ± Standard Deviation; the molecule in question is CC(C)CCC[C@@H](C)[C@H]1CC[C@H]2[C@@H]3CC=C4C[C@@H](SSCCC(=O)N(CCC(C)N)CCC(C)N)CC[C@]4(C)[C@H]3CC[C@]12C (stereo partly shown) [SA173, dihydrochloride]
Result: 33596.1

Q: Indicate the recorded Average Relative Light Units ± Standard Deviation value for this molecule: CC[C@H](CC[C@@H](C)[C@H]1CC[C@H]2[C@@H]3CC=C4C[C@@H](OC(=O)N(CCCCCCCC(C)N)CCC(C)N)CC[C@]4(C)[C@H]3CC[C@]12C)C(C)C (stereo partly shown) [SA144, dihydrochloride]
Result: 33357.5

###

- assay_notes: Encapsulation of mRNA nanoparticles with lipid amines using Ribogreen assay
- Format: physicochemical
- assay_setup: Luciferase mRNA nanoparticle modified with lipid amine
Where a name gives a salt, the structure may show the parent alone.
Exercise: state measured % Encapsulation (Ribogreen) for each of the compounds provided.
// units = %; emit number, no label

Q: Tell us which % Encapsulation (Ribogreen) value is on record for CC[C@H](CC[C@@H](C)[C@H]1CC[C@H]2[C@@H]3CC=C4C[C@@H](OC(=O)CCCC(=O)N(CCCCNCCC(N)(CC)CC)CCC(N)(CC)CC)CC[C@]4(C)[C@H]3CC[C@]12C)C(C)C [SA182, trihydrochloride]
Result: 99.0

Q: For CC(C)CCC[C@@H](C)[C@H]1CC[C@H]2[C@@H]3CC=C4C[C@@H](OC(=O)CCC(=O)N(CCCCCCCC(C)N)CCC(C)N)CC[C@]4(C)[C@H]3CC[C@]12C (stereo partly drawn) [SA162, dihydrochloride] , write its % Encapsulation (Ribogreen).
Result: 99.4

Q: Give reported % Encapsulation (Ribogreen) value for CC[C@H](CC[C@@H](C)[C@H]1CC[C@H]2[C@@H]3CC=C4C[C@@H](OC(=O)N(CCCCNC)CCCNC)CC[C@]4(C)[C@H]3CC[C@]12C)C(C)C [SA180, dihydrochloride]
Result: 98.7

Q: Please give the documented % Encapsulation (Ribogreen) of CC(C)CCC[C@@H](C)[C@H]1CC[C@H]2[C@@H]3CC=C4C[C@@H](OC(=O)N(CCCCNCC(C)(C)CN)CC(C)(C)CN)CC[C@]4(C)[C@H]3CC[C@]12C [SA77, trihydrochloride]
Result: 98.2

Q: Answer with the recorded % Encapsulation (Ribogreen) for the compound listed here: CC[C@H](CC[C@@H](C)[C@H]1CC[C@H]2[C@@H]3CC=C4C[C@@H](OC(=O)CCC(=O)N(CCC(C)N)CCC(C)N)CC[C@]4(C)[C@H]3CC[C@]12C)C(C)C (stereo partly drawn) [SA168, dihydrochloride]
Result: 99.3

Q: Tell me % Encapsulation (Ribogreen) reported for CC[C@H](CC[C@@H](C)[C@H]1CC[C@H]2[C@@H]3CC=C4C[C@@H](OC(=O)CCCC(=O)N(CCCCNCCC(C)(C)N)CCC(C)(C)N)CC[C@]4(C)[C@H]3CC[C@]12C)C(C)C.Cl.Cl.Cl [SA137]
Result: 99.6

###

- assay_notes: Diameter and PDI from DLS measurements of mRNA nanoparticles with lipid amines
- Type: physicochemical
- assay_setup: CFTR mRNA nanoparticle with lipid amine
- Protocol: Lipids are dissolved in ethanol at a concentration of 24 mg/mL and molar ratios of 49.0:11.2:39.3:0.5 (IL1:DSPC:cholesterol:PEG-DMG-2K) and mixed with the acidification buffer (45 mM acetate buffer at pH 4). The lipid solution and acidification buffer are mixed using a multi-inlet vortex mixer at a 3:7 volumetric ratio of lipid:buffer for mixer 1 and mixer 2 and a 1:3 volumetric ratio of lipid:buffer (25% ethanol) for mixer 3. […]
Structures can show the parent of a compound that is named as a salt.
What PDI was measured for each of the following?
Keep it simple and answer with nothing but the number.

Q: Dear colleague, please send me the reported PDI for CC(C)CCC[C@@H](C)[C@H]1CC[C@H]2[C@@H]3CC=C4C[C@@H](SSCCCCC(=O)N(CCCN)CCCCCCCCN)CC[C@]4(C)[C@H]3CC[C@]12C [SA110, dihydrochloride] when you can.
Result: 0.15

Q: Using known records, supply PDI for CC(C)CCC[C@@H](C)[C@H]1CC[C@H]2[C@@H]3CC=C4C[C@@H](OC(=O)CCCC(=O)N(CCCCNCCC(C)(C)N)CCC(C)(C)N)CC[C@]4(C)[C@H]3CC[C@]12C [SA121, trihydrochloride]
Result: 0.14
